- Assayed system: T1, recombinant human MASP1 active protease (amino acids 297-699, C-terminal His Tag) (human, UniProt P48740 297-699)
- T1 sequence: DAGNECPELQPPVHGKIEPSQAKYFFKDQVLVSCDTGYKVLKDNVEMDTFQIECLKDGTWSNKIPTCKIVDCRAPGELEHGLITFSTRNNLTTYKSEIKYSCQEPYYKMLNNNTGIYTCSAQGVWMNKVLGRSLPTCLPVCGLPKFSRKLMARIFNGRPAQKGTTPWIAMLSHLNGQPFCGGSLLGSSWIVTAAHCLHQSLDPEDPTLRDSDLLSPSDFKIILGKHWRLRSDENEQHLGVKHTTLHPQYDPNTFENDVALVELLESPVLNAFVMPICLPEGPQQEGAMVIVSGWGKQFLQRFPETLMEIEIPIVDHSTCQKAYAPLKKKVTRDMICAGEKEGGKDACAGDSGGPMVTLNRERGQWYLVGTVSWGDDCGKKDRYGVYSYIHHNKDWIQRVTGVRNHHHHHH
- Assay notes: cell-based or functional assay
Bridge positions count the residues as written; N and C are the ends. Square brackets hold non-standard residues; d marks the D form. Ends that are not written are not given here. Oic = O=C(O)[C@@H]1C[C@@H]2CCCC[C@@H]2N1; tBuAla = CC(C)(C)C[C@H](N)C(=O)O; Pen = CC(C)(S)[C@H](N)C(=O)O; Sar = CNCC(=O)O

{"Binder": "[Sar]ICSRSLP[Oic]I[Pen]IP[5‑Azaspiro(2.4)heptane‑1‑carboxylic acid]-OH (disulfide 3-11) [Example 438: ((N-Me)G)-IC+SRSLP-(Oic)-I-(Pen)+IP-((5-Azaspiro[2.4]heptane-1-carboxylic acid)-OH]", "human MASP1 IC50 (nM)": 2.9}
{"Binder": "[Sar]ICKRS[tBuAla]PPI[Pen]IP-NH2 (disulfide 3-11; N-terminus assumed; SMILES CC[C@H](C)[C@H](NC(=O)CNC)C(=O)N[C@H]1CSSC(C)(C)[C@@H](C(=O)N[C@H](C(=O)N2CCC[C@H]2C(N)=O)[C@@H](C)CC)NC(=O)[C@H]([C@@H](C)CC)NC(=O)[C@@H]2CCCN2C(=O)[C@@H]2CCCN2C(=O)[C@H](CC(C)(C)C)NC(=O)[C@H](CO)NC(=O)[C@H](CCCNC(=N)N)NC(=O)[C@H](CCCCN)NC1=O) [Example 412: ((N-Me)G)-IC+KRS-((tBu)A)-PPI-(Pen)+IP-NH2]", "human MASP1 IC50 (nM)": 77}
{"Binder": "AICSRS[2‑Amino‑7‑(tert-butoxy)‑7‑oxoheptanoic acid]PPI[Pen]IPD-NH2 (disulfide 3-11) [Example 344: AIC+SRS-(2-Amino-7-(tert-butoxy)-7-oxoheptanoic acid)-PPI-(Pen)+IPD-NH2]", "human MASP1 IC50 (nM)": 27}

Provenance of the data: patent US20210246166A1
